Where do the numbers come from? From paper PMC4306533.

target: heIF4E1a (Homo sapiens); construct: made in house; host or cells: E. coli Rosetta2(DE3); assay: time-synchronized fluorescence titration of cap analogue binding; details: equilibrium association constant; buffer without glycerol
Sequence (P06730 whole entry): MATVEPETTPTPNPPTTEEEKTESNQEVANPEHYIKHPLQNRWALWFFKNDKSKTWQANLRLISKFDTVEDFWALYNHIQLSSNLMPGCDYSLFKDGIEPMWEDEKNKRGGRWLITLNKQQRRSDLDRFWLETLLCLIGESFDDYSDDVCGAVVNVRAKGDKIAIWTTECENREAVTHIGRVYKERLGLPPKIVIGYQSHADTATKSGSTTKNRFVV
Give Condition met when the value for Kas − glycerol heIF4E1a is at least 10 μM^− 1. Give Condition not met when it is less.

Solved entries (count: 2):
>  <MOLECULE>
Cn1c[n+]([C@@H]2O[C@H](COP(=O)(O)OP(=O)(O)OP(=O)(O)OP(=O)(O)OP(=O)(O)O)[C@@H](O)[C@H]2O)c2nc(N)[nH]c(=O)c21 [m^7Gp5]

>  <STUDY_TARGET>
heIF4E1a (Homo sapiens)

>  <ASSIGNED_CLASS>
Condition met

$$$$
>  <MOLECULE>
CN(C)c1nc2c(c(=O)[nH]1)[n+](C)cn2[C@@H]1O[C@H](COP(=O)(O)OP(=O)(O)OP(=O)(O)O)[C@@H](O)[C@H]1O [m^2,2,7GTP]

>  <STUDY_TARGET>
heIF4E1a (Homo sapiens)

>  <ASSIGNED_CLASS>
Condition not met

$$$$

input: Kindly determine if Kas − glycerol heIF4E1a recorded for Cn1c[n+]([C@@H]2O[C@H](COP(=O)(O)OP(=O)(O)OP(=O)(O)OP(=O)(O)O)[C@@H](O)[C@H]2O)c2nc(N)[nH]c(=O)c21 [m^7Gp4] is above or exactly 10 μM^− 1.
output: Condition met

input: Kindly determine if Kas − glycerol heIF4E1a recorded for CO[C@@H]1[C@H](O)[C@@H](COP(=O)(O)OP(=O)(O)OP(=O)(O)OC[C@H]2O[C@@H](n3c[n+](C)c4c(=O)[nH]c(N)nc43)[C@H](O)[C@@H]2O)O[C@H]1n1cnc2c(=O)[nH]c(N)nc21 [m^7Gpppm^2′-OG] is above or exactly 10 μM^− 1.
output: Condition not met

input: Kindly determine if Kas − glycerol heIF4E1a recorded for Nc1nc2c(c(=O)[nH]1)n(Cc1ccccc1)c[n+]2[C@@H]1O[C@H](COP(=O)(O)OP(=O)(O)O)[C@@H](O)[C@H]1O [bn^7GDP] is above or exactly 10 μM^− 1.
output: Condition met

input: Kindly determine if Kas − glycerol heIF4E1a recorded for CCn1c[n+]([C@@H]2O[C@H](COP(=O)(O)OP(=O)(O)OP(=O)(O)O)[C@@H](O)[C@H]2O)c2nc(N)[nH]c(=O)c21 [et^7GTP] is above or exactly 10 μM^− 1.
output: Condition met

---

test system: heIF4E1b; test: time-synchronized fluorescence titration of cap analogue binding; set-up: species or system human; conditions: without glycerol
Threshold 2. Ratio Kas (h4E1a) to Kas (h4E1b) below it: True. Ratio Kas (h4E1a) to Kas (h4E1b) at it or above: False.

Solved entries (count: 5):
>  <GIVEN_SMILES>
Cn1c[n+]([C@@H]2O[C@H](COP(=O)(O)OP(=O)(O)OP(=O)(O)OP(=O)(O)OP(=O)(O)O)[C@@H](O)[C@H]2O)c2nc(N)[nH]c(=O)c21

>  <ASSIGNED_CLASS>
False

$$$$
>  <GIVEN_SMILES>
Nc1nc2c(c(=O)[nH]1)n(Cc1ccccc1)c[n+]2[C@@H]1O[C@H](COP(=O)(O)OP(=O)(O)O)[C@@H](O)[C@H]1O

>  <ASSIGNED_CLASS>
True

$$$$
>  <GIVEN_SMILES>
CN(C)c1nc2c(c(=O)[nH]1)[n+](C)cn2[C@@H]1O[C@H](COP(=O)(O)OP(=O)(O)OP(=O)(O)O)[C@@H](O)[C@H]1O

>  <ASSIGNED_CLASS>
True

$$$$
>  <GIVEN_SMILES>
Cn1c[n+]([C@@H]2O[C@H](COP(=O)(O)OP(=O)([O-])OP(=O)(O)OC[C@H]3O[C@@H](n4cnc5c(=O)[nH]c(N)nc54)[C@H](O)[C@@H]3O)[C@@H](O)[C@H]2O)c2nc(N)[nH]c(=O)c21

>  <ASSIGNED_CLASS>
True

$$$$
>  <GIVEN_SMILES>
CO[C@@H]1[C@H](O)[C@@H](COP(=O)(O)OP(=O)(O)OP(=O)(O)OC[C@H]2O[C@@H](n3c[n+](C)c4c(=O)[nH]c(N)nc43)[C@H](O)[C@@H]2O)O[C@H]1n1cnc2c(=O)[nH]c(N)nc21

>  <ASSIGNED_CLASS>
True

$$$$

Pending compound:
input: For this compound, is Ratio Kas (h4E1a) to Kas (h4E1b) lower than 2? Cn1c[n+]([C@@H]2O[C@H](COP(=O)(O)OP(=O)([O-])O)[C@@H](O)[C@H]2O)c2nc(N)[nH]c(=O)c21
output: False

---

Overview of recorded Kas + glycerol XeIF4E1a for various compounds
target: XeIF4E1a (Xenopus laevis, UniProt P48597); construct: made in house; host or cells: E. coli Rosetta2(DE3); test: time-synchronized fluorescence titration of cap analogue binding; conditions: equilibrium association constant; 10% glycerol
Sequence (P48597 whole entry): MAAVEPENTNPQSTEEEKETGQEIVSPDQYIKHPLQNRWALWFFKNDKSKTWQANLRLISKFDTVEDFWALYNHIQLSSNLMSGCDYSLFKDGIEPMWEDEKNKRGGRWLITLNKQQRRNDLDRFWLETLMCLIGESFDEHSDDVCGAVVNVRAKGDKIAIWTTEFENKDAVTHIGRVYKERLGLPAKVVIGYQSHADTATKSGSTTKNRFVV
Entry rule: numbers only, all in μM^− 1.

>  <COMPOUND>
CCn1c[n+]([C@@H]2O[C@H](COP(=O)(O)OP(=O)(O)OP(=O)(O)O)[C@@H](O)[C@H]2O)c2nc(N)[nH]c(=O)c21

>  <Kas + glycerol XeIF4E1a, μM^− 1>
4.97

$$$$

input: Suppose we examine the compound Cn1c[n+]([C@@H]2O[C@H](COP(=O)(O)O)[C@@H](O)[C@H]2O)c2nc(N)[nH]c(=O)c21 ; what Kas + glycerol XeIF4E1a value has been reported?
output: 0.256

input: Suppose we examine the compound Nc1nc2c(ncn2[C@@H]2O[C@H](COP(=O)(O)OP(=O)(O)OP(=O)(O)O)[C@@H](O)[C@H]2O)c(=O)[nH]1 [GTP, reference compound] ; what Kas + glycerol XeIF4E1a value has been reported?
output: 0.055

input: Suppose we examine the compound Cn1c[n+]([C@@H]2O[C@H](COP(=O)(O)OP(=O)(O)OP(=O)(O)OP(=O)(O)O)[C@@H](O)[C@H]2O)c2nc(N)[nH]c(=O)c21 ; what Kas + glycerol XeIF4E1a value has been reported?
output: 151.1

input: Suppose we examine the compound Cn1c[n+]([C@@H]2O[C@H](COP(=O)(O)OP(=O)([O-])OP(=O)(O)OC[C@H]3O[C@@H](n4cnc5c(=O)[nH]c(N)nc54)[C@H](O)[C@@H]3O)[C@@H](O)[C@H]2O)c2nc(N)[nH]c(=O)c21 ; what Kas + glycerol XeIF4E1a value has been reported?
output: 2.291

input: Suppose we examine the compound Cn1c[n+]([C@@H]2O[C@H](COP(=O)([O-])OP(=O)(O)OP(=O)(O)O)[C@@H](O)[C@H]2O)c2nc(N)[nH]c(=O)c21 ; what Kas + glycerol XeIF4E1a value has been reported?
output: 23.34

input: Suppose we examine the compound Cn1c[n+]([C@@H]2O[C@H](COP(=O)(O)OP(=O)(O)OP(=O)(O)OP(=O)(O)OP(=O)(O)O)[C@@H](O)[C@H]2O)c2nc(N)[nH]c(=O)c21 ; what Kas + glycerol XeIF4E1a value has been reported?
output: 230

---

Overview of recorded Ratio Kas (h4E1a) to Kas (X4E1a) for various compounds
tested on: XeIF4E1a; assay: time-synchronized fluorescence titration of cap analogue binding; set-up: species or system Xenopus laevis; details: without glycerol
// return just the number, without any unit appended

# count of solved cases: 5
>  <COMPOUND>
Cn1c[n+]([C@@H]2O[C@H](COP(=O)(O)OP(=O)(O)OP(=O)(O)OP(=O)(O)OP(=O)(O)O)[C@@H](O)[C@H]2O)c2nc(N)[nH]c(=O)c21

>  <RESULT_NUMBER>
1.44

$$$$
>  <COMPOUND>
Nc1nc2c(c(=O)[nH]1)n(Cc1ccccc1)c[n+]2[C@@H]1O[C@H](COP(=O)(O)OP(=O)(O)O)[C@@H](O)[C@H]1O

>  <RESULT_NUMBER>
1.58

$$$$
>  <COMPOUND>
Cn1c[n+]([C@@H]2O[C@H](COP(=O)(O)OP(=O)(O)OP(=O)(O)OP(=O)(O)O)[C@@H](O)[C@H]2O)c2nc(N)[nH]c(=O)c21

>  <RESULT_NUMBER>
1.57

$$$$
>  <COMPOUND>
Cn1c[n+]([C@@H]2O[C@H](COP(=O)(O)OP(=O)(O)OP(=O)(O)OC[C@H]3O[C@@H](n4cnc5c(N)ncnc54)[C@H](O)[C@@H]3O)[C@@H](O)[C@H]2O)c2nc(N)[nH]c(=O)c21

>  <RESULT_NUMBER>
1.97

$$$$
>  <COMPOUND>
Cn1c[n+]([C@@H]2O[C@H](COP(=O)(O)OP(=O)([O-])O)[C@@H](O)[C@H]2O)c2nc(N)[nH]c(=O)c21

>  <RESULT_NUMBER>
1.56

$$$$

input: Suppose we examine the compound Cn1c[n+]([C@@H]2O[C@H](COP(=O)(O)OP(=O)([O-])OP(=O)(O)OC[C@H]3O[C@@H](n4cnc5c(=O)[nH]c(N)nc54)[C@H](O)[C@@H]3O)[C@@H](O)[C@H]2O)c2nc(N)[nH]c(=O)c21 ; what Ratio Kas (h4E1a) to Kas (X4E1a) value has been reported?
output: 1.49

input: Suppose we examine the compound Nc1nc2c(ncn2[C@@H]2O[C@H](COP(=O)(O)OP(=O)(O)OP(=O)(O)O)[C@@H](O)[C@H]2O)c(=O)[nH]1 [GTP, reference compound] ; what Ratio Kas (h4E1a) to Kas (X4E1a) value has been reported?
output: 0.87
